Entries and their pest or weed control at 2241.7 g/ha
# Tested on: tomato (Lycopersicon esculentum)
# assay: Postemergence herbicidal activity, tomato
# Format: in vivo
# recorded conditions: Solanum lycopersicum, post-emergence, 336 h, Post, 2 lb/A
Only the number, expressed in %, is required.

>  <compound>
CC(Oc1ccc(Oc2ccc(C(F)(F)F)cc2Cl)cc1)C(N)=O (stereo not drawn)

>  <display unit>
%

>  <pest or weed control at 2241.7 g/ha>
0

$$$$
>  <compound>
CC(C)OC(=O)C(C)Oc1ccc(Oc2ccc(C(F)(F)F)cc2Cl)cc1 (stereo not drawn)

>  <display unit>
%

>  <pest or weed control at 2241.7 g/ha>
99

$$$$
>  <compound>
C=CCOC(=O)C(C)Oc1ccc(Oc2ccc(C(F)(F)F)cc2Cl)cc1 (stereo not drawn)

>  <display unit>
%

>  <pest or weed control at 2241.7 g/ha>
95

$$$$
>  <compound>
CCOC(=O)C=CCOc1ccc(Oc2ccc(C(F)(F)F)cc2Cl)cc1

>  <display unit>
%

>  <pest or weed control at 2241.7 g/ha>
30

$$$$
>  <compound>
CC(Oc1ccc(Oc2ccc(C(F)(F)F)cc2)cc1)C(=O)O (stereo not drawn)

>  <display unit>
%

>  <pest or weed control at 2241.7 g/ha>
30

$$$$
>  <compound>
CCOC(=O)C(C)Oc1ccc(Oc2ccc(C(F)(F)F)cc2Cl)cc1C (stereo not drawn)

>  <display unit>
%

>  <pest or weed control at 2241.7 g/ha>
30

$$$$

[ask] Any idea what its pest or weed control at 2241.7 g/ha is? The compound is CC(C#N)Oc1ccc(Oc2ccc(C(F)(F)F)cc2)cc1 (stereo not drawn)
[reply] 0

[ask] Request: CCCCOC(=O)C(C)Oc1ccc(Oc2ccc(C(F)(F)F)cc2Cl)cc1 (stereo not drawn)
[reply] 99

[ask] Request: CCOC(=O)CCC(C)Oc1ccc(Oc2ccc(C(F)(F)F)cc2Cl)cc1 (stereo not drawn)
[reply] 0
